target: HLA-DR DRB1*1501 (human); assay: radioligand inhibition, purified HLA-DR
Here, each record is paired with measured IC50 data.

Look up IC50 for this binder: VCGIQNSVSANRSDP [CEA.570 peptide 9012.0135]
8.98 µM

Recorded IC50 for RWCIPWQRLLLTASL [CEA.10 peptide 9019.0104] , please?
0.061 µM

Record request: IC50 value, item SSYLSGANLNLSCHS [CEA.603 peptide 9012.0137]
13 µM

Given QYSWRINGIPQQHTQ [CEA.624 peptide 9019.0138] , state its recorded IC50.
2.07 µM

Look at this binder and give its reported IC50. SITVSASGTSPGLSA [CEA.671 peptide 9919.0143]
3.11 µM

# IC50 lookup, item SDSVILNVLYGPDAP [CEA.123 peptide 9019.0119 (position 226)]
0.351 µM

GET /values?readout=IC50&item= INGIPQQHTQVLFIA [CEA.629 peptide 9019.0139]
8.29 µM

Name the reported IC50 value associated with the binder TVGIMIGVLVGVALI [CEA.688 peptide 9019.05]
7.77 µM

Name the recorded IC50 for SPGLSAGATVGIMIG [CEA.680 peptide 9019.0144] .
3.93 µM
